The following compounds are shown together with reported Isomer (%) values.
Assay: Stability study of levorotatory enantiomer of compounds in solvent (MCT)
Assay type: physicochemical
Details: dextrorotatory form, MCT solution, 5° C., Day 5
Experimental: 2. Test method: the samples were prepared according to Table 2, wherein each sample was dispensed into 10 vials according to the lofting volume, and the samples were lofted according to Table 3. 4. The related substance was determined according to high performance liquid chromatography (General Chapter 0512, China Pharmacopoeia, 2015 Edition). […]
The figure you give is taken to be in %; do not add the unit.

{"columns": ["compound", "readout_name", "quantitative_readout"],
 "data": [
  ["CCOC(=O)OC(CC)OC(=O)[C@H]1CCn2c(C(=O)c3ccccc3)ccc21 (stereo partly drawn) [N15(S)]", "Isomer (%)", 4.58],
  ["CCC(OC(=O)OC(C)C)OC(=O)[C@H]1CCn2c(C(=O)c3ccccc3)ccc21 (stereo partly drawn) [N16(S)]", "Isomer (%)", 2.47],
  ["CC(C)OC(=O)OC(C)OC(=O)[C@H]1CCn2c(C(=O)c3ccccc3)ccc21 (stereo partly drawn) [N2(S)]", "Isomer (%)", 5.63]
]}

Asked: Tell us which Isomer (%) value is on record for CCOC(=O)OC(C)OC(=O)[C@H]1CCn2c(C(=O)c3ccccc3)ccc21 (stereo partly drawn) [N12(S)]
Given back: 3.05

---

Assay: High temperature stability study of compounds (60° C.)
Assay type: physicochemical
Conditions: in the dark, Day 0
Protocol: Test protocol: the compounds prepared in the present disclosure were placed in a colorless and transparent vial, placed in the dark at a high temperature (60° C.), and were sampled for day 0, day 5 and day 10, respectively, and the purity of the compounds and the change of the related substance (ketorolac) were determined.
readout_name: Total main peak purity (%)
The figure you give is taken to be in %; do not add the unit.

Recorded results for 8 compounds are shown here.
{"columns": ["compound", "readout_name", "unit_symbol", "quantitative_readout"],
 "data": [
  ["CCOC(=O)OC(C)OC(=O)C1CCn2c(C(=O)c3ccccc3)ccc21 (centres unmarked)", "Total main peak purity (%)", "%", 93.84],
  ["CC(OC(=O)OC1CCCCC1)OC(=O)C1CCn2c(C(=O)c3ccccc3)ccc21 (centres unmarked)", "Total main peak purity (%)", "%", 96.36],
  ["CC(C)OC(=O)OC(C)OC(=O)C1CCn2c(C(=O)c3ccccc3)ccc21 (centres unmarked)", "Total main peak purity (%)", "%", 95.58],
  ["CCC(=O)OC(CC)OC(=O)C1CCn2c(C(=O)c3ccccc3)ccc21 (centres unmarked)", "Total main peak purity (%)", "%", 93.15],
  ["CC(OC(=O)C(C)C)OC(=O)C1CCn2c(C(=O)c3ccccc3)ccc21 (centres unmarked)", "Total main peak purity (%)", "%", 91.56],
  ["CCC(OC(C)=O)OC(=O)C1CCn2c(C(=O)c3ccccc3)ccc21 (centres unmarked)", "Total main peak purity (%)", "%", 92.45],
  ["CCOC(=O)OC(OC(=O)C1CCn2c(C(=O)c3ccccc3)ccc21)C(C)C (centres unmarked)", "Total main peak purity (%)", "%", 94.25],
  ["CCC(OC(=O)OC(C)C)OC(=O)C1CCn2c(C(=O)c3ccccc3)ccc21 (centres unmarked)", "Total main peak purity (%)", "%", 97.33]
]}

Asked: Tell us which Total main peak purity (%) value is on record for CC(OC(=O)C1CCn2c(C(=O)c3ccccc3)ccc21)OC(=O)C(C)(C)C (centres unmarked)
Given back: 90.83

Asked: Tell us which Total main peak purity (%) value is on record for CCC(=O)OC(C)OC(=O)C1CCn2c(C(=O)c3ccccc3)ccc21 (centres unmarked)
Given back: 98.91

Asked: Tell us which Total main peak purity (%) value is on record for CC(=O)OC(OC(=O)C1CCn2c(C(=O)c3ccccc3)ccc21)C(C)C (centres unmarked)
Given back: 97.46

Asked: Tell us which Total main peak purity (%) value is on record for CCC(=O)OC(OC(=O)C1CCn2c(C(=O)c3ccccc3)ccc21)C(C)C (centres unmarked)
Given back: 96.21

Asked: Tell us which Total main peak purity (%) value is on record for CCOC(=O)OC(CC)OC(=O)C1CCn2c(C(=O)c3ccccc3)ccc21 (centres unmarked)
Given back: 96.30

Asked: Tell us which Total main peak purity (%) value is on record for CC(C)OC(=O)OC(OC(=O)C1CCn2c(C(=O)c3ccccc3)ccc21)C(C)C (centres unmarked)
Given back: 96.30
